System: HDQ-P1
ASSAY_SUMMARY: normalised viability (% of control), CellTiter-Blue; higher = more viable cells (about 100 = DMSO control)
CONDITION_NOTES: 10000 nM; incubation time: 72 h
// values below are reported normalised viability

Worked cases, normalised viability given:
{"columns": ["COMPOUND", "READOUT", "REPORTED_MEASUREMENT"],
 "data": [
  ["Nc1nc(F)nc2c1ncn2[C@@H]1O[C@H](CO)[C@@H](O)[C@@H]1O", "normalised viability", "80.1%"],
  ["O=C(O)C(=O)O.[NH-][C@@H]1CCCC[C@H]1[NH-].[Pt+2]", "normalised viability", "60.2%"]
]}

Identify measured normalised viability associated with "C=CC(=O)Nc1cc2c(Nc3ccc(F)c(Cl)c3)ncnc2cc1OCCCN1CCOCC1" 1.8%

Identify measured normalised viability associated with "O=C(Cc1ccc(-c2ccc(OCCN3CCOCC3)cc2)cn1)NCc1ccccc1" 47.6%

Identify measured normalised viability associated with "O=C(O)C1(C(=O)O)CCC1.[NH2-].[NH2-].[Pt+2]" 122%

Identify measured normalised viability associated with CCN(CC)CCCC(C)Nc1c2ccc(Cl)cc2nc2ccc(OC)cc12 (configuration not stated) 6.19%

Identify measured normalised viability associated with "CC1=C(/C=C/C(C)=C/C=C/C(C)=C/C(=O)O)C(C)(C)CCC1" 122%

----------
System: CAL-120
ASSAY_SUMMARY: normalised viability (% of control), CellTiter-Blue; higher = more viable cells (100 = DMSO, 0 = benzethonium chloride kill control)
CONDITION_NOTES: 1 nM; incubation time: 72 h
// values below are reported normalised viability
Answer in %, number only, no unit symbol.

Worked cases, normalised viability given:
{"columns": ["COMPOUND", "REPORTED_MEASUREMENT"],
 "data": [
  ["Nc1ccccc1NC(=O)c1ccc(CNC(=O)OCc2cccnc2)cc1", 83.6],
  ["Cc1ccc(-c2cc(C(F)(F)F)nn2-c2ccc(S(N)(=O)=O)cc2)cc1", 78.3],
  ["COc1cc2nccc(Oc3ccc(NC(=O)Nc4cc(C)on4)c(Cl)c3)c2cc1OC", 106]
]}

Shifting focus to the compound that follows.
Identify measured normalised viability associated with "CC1=C(/C=C/C(C)=C/C=C/C(C)=C/C(=O)O)C(C)(C)CCC1" 86.9

----------
// values below are reported normalised response
Tested on: SK-BR-3
ASSAY_SUMMARY: normalised response (% of control), CellTiter-Glo; higher = more viable cells (100 = DMSO, 0 = benzethonium chloride kill control)
CONDITION_NOTES: incubation time: 72 h
The reply should read as a number followed by its unit.

Worked cases, normalised response given:
{"columns": ["MOLECULE", "normalised response"],
 "data": [
  ["CC[C@@H]1C(=O)N(C)c2cnc(Nc3ccc(C(=O)NC4CCN(C)CC4)cc3OC)nc2N1C1CCCC1 [BI 2536] (1 nM)", "97.2%"],
  ["CC[C@H](C)C(=O)O[C@H]1C[C@H](O)C=C2C=C[C@H](C)[C@H](CC[C@@H](O)C[C@@H](O)CC(=O)O)[C@H]21 [Pravastatin] (10 nM)", "95.6%"],
  ["O=C(Cc1ccc(-c2ccc(OCCN3CCOCC3)cc2)cn1)NCc1ccccc1 [KX2-391] (1 nM)", "120%"],
  ["CC(=O)Nc1cccc(-n2c(=O)n(C3CC3)c(=O)c3c(Nc4ccc(I)cc4F)n(C)c(=O)c(C)c32)c1 [Trametinib] (0.025 nM)", "110%"],
  ["CCN(CC)CCCC(C)Nc1c2ccc(Cl)cc2nc2ccc(OC)cc12 (configuration not stated) [Mepacrine] (50 nM)", "95.3%"]
]}

Identify measured normalised response associated with O=C(O)C(=O)O.[NH-][C@@H]1CCCC[C@H]1[NH-].[Pt+2] [Oxaliplatin] (1 nM) 90%

Identify measured normalised response associated with CCc1cncnc1N1CCN(Cc2nc3ccc(C(F)(F)F)cc3[nH]2)CC1 (1000 nM) 112%

Recorded values, source the supplement of paper PMC4862054.
